The entries below come with measured Collagenase Inhibition rates in blood after oral administration, After 1 hour values attached.
Tested on: collagenase
Assay: Collagenase activity inhibition rate in blood after oral administration (in mice)
Format: in vivo
Settings: 30 mg/kg p.o., after 1 hour
Counter-ions that a name gives are not always drawn.
Lab note: write values as number then unit, every time.

Compound	Result
CNCC(C(=O)NO)C(CC(C)C)C(=O)NC(C(=O)NC)c1ccccc1 (centres unmarked) [Compound E]	82%

Quick check: Collagenase Inhibition rates in blood after oral administration, After 1 hour of CNC(=O)C(NC(=O)C(CC(C)C)C(CN1CCOCC1)C(=O)NO)c1ccccc1 (centres unmarked) [Compound C, hydrochloride] ?
75%

Quick check: Collagenase Inhibition rates in blood after oral administration, After 1 hour of CNC(=O)C(NC(=O)C(CC(=O)NO)CC(C)C)c1ccc(C(C)C)cc1 (centres unmarked) [Compound H] ?
74%

###

The entries below come with measured Collagenase Inhibition rates in blood after oral administration, After 1 hour values attached.
System: collagenase
Assay: Collagenase activity inhibition rate in blood after oral administration (in mice)
Assay type: in vivo
Conditions: 30 mg/kg p.o., after 1 hour
A number alone suffices; assume %.

Past entries and their recorded results:
Compound	Numeric result
CNC(=O)[C@H](Cc1c[nH]c2ccccc12)NC(=O)[C@@H](CC(=O)NO)CC(C)C [Known compound Z, reference compound]	58
CNC(=O)C(NC(=O)C(CC(=O)NO)CC(C)C)c1ccc(F)cc1 (centres unmarked)	83
CNC(=O)C(NC(=O)C(CC(=O)NO)CC(C)C)c1ccccc1 (centres unmarked)	88
CNC(=O)[C@H](Cc1ccccc1)NC(=O)[C@H](CC(C)C)[C@H](CSc1cccs1)C(=O)NO [Known compound Y, reference compound]	14
CNC(=O)C(NC(=O)C(CC(C)C)C(C)C(=O)NO)c1ccccc1 (single isomer, unassigned)	87
CCNC(=O)C(NC(=O)C(CC(=O)NO)CC(C)C)c1ccccc1 (centres unmarked)	89

Identify the measured Collagenase Inhibition rates in blood after oral administration, After 1 hour of CNC(=O)C(NC(=O)C(CC(=O)NO)CC(C)C)c1ccc(O)cc1 (centres unmarked) for collagenase.
84

Identify the measured Collagenase Inhibition rates in blood after oral administration, After 1 hour of CNC(=O)[C@H](Cc1ccc(OC)cc1)NC(=O)[C@@H](CC(=O)NO)CC(C)C [Known compound X, reference compound] for collagenase.
60
